Every entry's value here was drawn from patent US20150335768A1.

- Target Or System: T1, recombinant extracellular domain of human ErbB-2 tagged with the FLAG epitope (human, UniProt P04626 23-652)
- T1 construct: extracellular domain; Expressed in HEK-293 cells, purified on anti-FLAG M2; Biotinylated for biopanning; also called ErbB-2-ECD; ErbB2-ECD
- Protocol: quenching of intrinsic tryptophan fluorescence of soluble ErbB-2-ECD titrated with peptide, 1:1 model, global fit of three protein concentrations
Ends that are not written are not given here.
Measured Quantity: Kd (µM)
Numeric answer only, unit µM assumed.

(Q) Param item = KCCYSL (not fully specified (bridges); also: present as oxidized and reduced monomer, Chemically synthesized, not biotinylated; used in the fluorescence titration) [synthetic p6.1 peptide KCCYSL] ; retrieve measured Kd.
(A) 30.2
